Source listed as patent US12077503B2.

test system: blackgrass (Alopecurus myosuroides); assay: Test A postemergence; type: in vivo; settings: Alopecurus myosuroides, post-emergence, 240 h, 125 g ai/ha, postemergence, visual injury rating after approximately 10 d; read-out: Blackgrass plant response rating (0 to 100 scale, 0 no effect, 100 complete control)
Entries and their pest or weed control at 125 g/ha

[
  {
    "Molecule": "O=C1NCC(c2cccc(I)c2)C1C(=O)Nc1ccccc1F (stereo not drawn) [Compound 845]",
    "Test target": "blackgrass (Alopecurus myosuroides)",
    "pest or weed control at 125 g/ha": "40%"
  },
  {
    "Molecule": "Cc1c(F)cccc1NC(=O)[C@H]1C(=O)N(C)C[C@@H]1c1cc(F)c(F)c(F)c1 [Compound 867]",
    "Test target": "blackgrass (Alopecurus myosuroides)",
    "pest or weed control at 125 g/ha": "30%"
  },
  {
    "Molecule": "CN1C[C@H](c2cc(F)cc(F)c2)[C@@H](C(=O)Nc2ncc(C(F)(F)F)cc2F)C1=O [Compound 868]",
    "Test target": "blackgrass (Alopecurus myosuroides)",
    "pest or weed control at 125 g/ha": "0%"
  },
  {
    "Molecule": "Cc1cc(F)cc([C@H]2CN(C)C(=O)[C@@H]2C(=O)Nc2cccc(F)c2C)c1 [Compound 802]",
    "Test target": "blackgrass (Alopecurus myosuroides)",
    "pest or weed control at 125 g/ha": "60%"
  },
  {
    "Molecule": "CC(C)c1cccc([C@H]2CN(C)C(=O)[C@@H]2C(=O)Nc2ccccc2S(C)(=O)=O)c1 [Compound 820]",
    "Test target": "blackgrass (Alopecurus myosuroides)",
    "pest or weed control at 125 g/ha": "40%"
  },
  {
    "Molecule": "O=C1NC[C@H](c2ccc3c(c2)CCCO3)[C@H]1C(=O)Nc1ccccc1F [Compound 885]",
    "Test target": "blackgrass (Alopecurus myosuroides)",
    "pest or weed control at 125 g/ha": "0%"
  }
]

====

tested on: giant foxtail (Setaria faberi); test: Test G Post-Emergence Protocol; format: in vivo; conditions: Setaria faberi, post-emergence, 312 h, 15.625 g ai/ha, evaluated after 13 days (100=total damage to plant; 0=no damage to plant), read-out: Foxtail, Giant damage rating
Readout label: pest or weed control at 15.625 g/ha (%)

[
  {
    "Compound": "CN1CC(c2ccc(F)c(OCC(F)(F)F)c2)C(C(=O)Nc2cccc(F)c2F)C1=O (stereo not shown)",
    "Unit abbreviation": "%",
    "Recorded result": 70
  },
  {
    "Compound": "CN1C[C@@H](c2ccc(C(F)(F)F)cc2)[C@H](C(=O)Nc2cnccc2Cl)C1=O (racemic)",
    "Unit abbreviation": "%",
    "Recorded result": 0
  },
  {
    "Compound": "CN1CCC(NC(=O)[C@H]2C(=O)N(C)C[C@@H]2c2ccc(C(F)(F)F)cc2)C1=O (mixture of isomers)",
    "Unit abbreviation": "%",
    "Recorded result": 0
  },
  {
    "Compound": "CN1CC(c2cc(C#N)cc(OC(F)(F)F)c2)C(C(=O)Nc2cccc(F)c2F)C1=O (stereo not shown)",
    "Unit abbreviation": "%",
    "Recorded result": 0
  }
]
